For each entry below, report its IC50, ligand induced chemotaxis value.
# experimental_system: T1, human CX3CR1 (human, UniProt P49238 1-355)
# T1 sequence: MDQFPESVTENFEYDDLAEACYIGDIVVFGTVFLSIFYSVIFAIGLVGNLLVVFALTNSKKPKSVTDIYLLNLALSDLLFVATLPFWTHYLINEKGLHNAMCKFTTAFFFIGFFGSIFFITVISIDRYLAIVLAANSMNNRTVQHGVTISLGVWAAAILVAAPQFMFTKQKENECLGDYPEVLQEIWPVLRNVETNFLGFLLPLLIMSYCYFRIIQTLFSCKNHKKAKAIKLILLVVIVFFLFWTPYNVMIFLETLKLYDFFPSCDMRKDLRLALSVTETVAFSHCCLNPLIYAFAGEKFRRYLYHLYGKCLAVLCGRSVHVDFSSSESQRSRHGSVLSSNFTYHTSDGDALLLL
# test_name: cell-based or functional assay
Field format: number, assumed nM, no unit text.

Exam item: What value of measured IC50, ligand induced chemotaxis is listed for CX3CR1BII00306 (VHH, also called CX3CR1BII306) VHH: DVQLVESGGGLVQPGGSLRLSCAASGSIFSSTAMAWYRQAPGKRRDLVAAISSVGVTKYADSVKGRFTISRDNSKNTVYLQMNSLRPEDTAVYYCTSDPRRGWDTRYWGQGTLVTVSS ?
Marked response: 63

Exam item: Request the reported IC50, ligand induced chemotaxis associated with CX3CR1BIIPMP66B02 (VHH, alexa647 label where used as labeled competitor (Table 23), also called CX3CR1BII66B02; C100CX3CR1BII66B02; not shown: C-terminal c-myc and His6 tags) VHH: EVQLVESGGGSVQAGESLRLSCAASGSIFSSNAMAWYRQAPGKRRDLVAAINSVGVTKYADSVKGRFTISRDNAKNTVYLQMNSLKPEDTAVYYCTSDPRRGWDTRYWGQGTQVTVSS
Marked response: 36

Exam item: I am curious: what IC50, ligand induced chemotaxis value has been reported for CX3CR1BII00307 (VHH, also called CX3CR1BII307) VHH: DVQLVESGGGLVQPGGSLRLSCAASGSIFSSTAMAWYRQAPGKRRDLVAAISTVGVTKYADSVKGRFTISRDNSKNTVYLQMNSLRPEDTAVYYCTSDPRRGWDTRYWGQGTLVTVSS ?
Marked response: 63

Exam item: Tell me the measured IC50, ligand induced chemotaxis of CX3CR1BII00308 (VHH, also called CX3CR1BII308) VHH: DVQLVESGGGLVQPGGSLRLSCAASGSIFSSNAMAWYRQAPGKRRDLVAAINSVGVTKYADSVKGRFTISRDNSKNTVYLQMNSLRPEDTAVYYCTSDPRRGWDTRYWGQGTLVTVSS , please.
Marked response: 44
